target-system: translationally controlled tumor protein (TCTP) (Homo sapiens, UniProt P13693)
Construct: gene TPT1; recombinant human TCTP (172 amino acids), codon-optimized, expressed in E. coli, intein tag cleaved on column
Sequence (P13693 1-172): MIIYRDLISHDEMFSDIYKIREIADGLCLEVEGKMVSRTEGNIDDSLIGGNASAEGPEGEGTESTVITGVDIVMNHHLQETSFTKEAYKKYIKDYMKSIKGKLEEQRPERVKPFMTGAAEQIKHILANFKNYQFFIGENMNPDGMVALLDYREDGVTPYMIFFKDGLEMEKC
experimental-details: microscale thermophoresis with amine-labeled (BLUE-NHS) purified TCTP
Format: binding
readout-type: pKd
# pKd = -log10(concentration in molar units)

### Prompt # get_value(readout='pKd', item= `COc1ccc2c(c1)N(C[C@H](C)CN(C)C)c1ccccc1S2` )
### Response 4.24

----------
target-system: translationally controlled tumor protein (TCTP) (Homo sapiens, UniProt P13693)
Construct: gene TPT1; recombinant human TCTP (172 amino acids), codon-optimized, expressed in E. coli, intein tag cleaved on column
experimental-details: microscale thermophoresis with amine-labeled (BLUE-NHS) purified TCTP, buffer with […] chloroform
Type: binding
readout-type: Kd (µM)
Report the figure in µM without appending any unit label.

### Prompt # get_value(readout='Kd', item= CC(C)(C)c1ccc(CN2CCN(C(c3ccccc3)c3ccc(Cl)cc3)CC2)cc1 (stereo not shown) )
### Response 433
